Values compiled from the supplement of paper PMC11246515.

Recorded measurements of total protein half-life in vivo, one per entry
assay: total protein half-life in vivo (active degradation + dilution); higher = more stable protein; conditions: wild type E. coli NCM3722; growth: C-lim chemostat; doubling time 3 h
State the answer as a number, implicitly in h.

MKIAILSRDGTLYSCKRLREAAIQRGHLVEILDPLSCYMNINPAASSIHYKGRKLPHFDAVIPRIGTAITFYGTAALRQFEMLGSYPLNESVAIARARDKLRSMQLLARQGIDLPVTGIAHSPDDTSDLIDMVGGAPLVVKLVEGTQGIGVVLAETRQAAESVIDAFRGLNAHILVQEYIKEAQGCDIRCLVVGDEVVAAIERRAKEGDFRSNLHRGGAASVASITPQEREIAIKAARTMALDVAGVDILRANRGPLVMEVNASPGLEGIEKTTGIDIAGKMIRWIERHATTEYCLKTGG [P0C0U4] = 2.85
MYKTIIMPVDVFEMELSDKAVRHAEFLAQDDGVIHLLHVLPGSASLSLHRFAADVRRFEEHLQHEAQERLQTMVSHFTIDPSRIKQHVRFGSVRDEVNELAEELGADVVVIGSRNPSISTHLLGSNASSVIRHANLPVLVVR = 3.06
MKFELDTTDGRARRGRLVFDRGVVETPCFMPVGTYGTVKGMTPEEVEATGAQIILGNTFHLWLRPGQEIMKLHGDLHDFMQWKGPILTDSGGFQVFSLGDIRKITEQGVHFRNPINGDPIFLDPEKSMEIQYDLGSDIVMIFDECTPYPADWDYAKRSMEMSLRWAKRSRERFDSLGNKNALFGIIQGSVYEDLRDISVKGLVDIGFDGYAVGGLAVGEPKADMHRILEHVCPQIPADKPRYLMGVGKPEDLVEGVRRGIDMFDCVMPTRNARNGHLFVTDGVVKIRNAKYKSDTGPLDPECDCYTCRNYSRAYLHHLDRCNEILGARLNTIHNLRYYQRLMAGLRKAIEEGKLESFVTDFYQRQGREVPPLNVD [P0A847] = 3.18
MPSIRLADLAQQLDAELHGDGDIVITGVASMQSAQTGHITFMVNPKYREHLGLCQASAVVMTQDDLPFAKSAALVVKNPYLTYARMAQILDTTPQPAQNIAPSAVIDATAKLGNNVSIGANAVIESGVELGDNVIIGAGCFVGKNSKIGAGSRLWANVTIYHEIQIGQNCLIQSGTVVGADGFGYANDRGNWVKIPQIGRVIIGDRVEIGACTTIDRGALDDTIIGNGVIIDNQCQIAHNVVIGDNTAVAGGVIMAGSLKIGRYCMIGGASVINGHMEICDKVTVTGMGMVMRPITEPGVYSSGIPLQPNKVWRKTAALVMNIDDMSKRLKSLERKVNQQD = 2.94
MKIAFIGEAVSGFGGMETVIRDVITTFRQQHIQSEMFFFCRNDKMDKGWLEGIKYSCSFSNIRLGFLRRAKHIHALSKWLQEYQPDIVICIDVISCLFAAKARKKSGIDMPVFSWPHFSLDHKKHAEYITCADYHLAISSGIKQQMINRGVAESTINVIFNPVETKDSVIPAPEEGETATFIYVGRMKFEGQKRVKDLLDGLSQAKGNWKLHVLGDGSDFEKCQAYGRELNIDDRIVWYGWQQYPWELVQQDIEKVSALLLTSSFEGFPMTLLEALSWGIPCISADCVSGPADIIQPDVNGHLYQPGDIAGFVTLLNKYIAGEIHIEHEKIPASIDEFYQSKYYDRLHKVIISAISRRK = 2.96
MGQRIPVTLGNIAPLSLRPFQPGRIALVCEGGGQRGIFTAGVLDEFMRAQFNPFDLYLGTSAGAQNLSAFICNQPGYARKVIMRYTTKREFFDPLRFVRGGNLIDLDWLVEATASQMPLQMDTAARLFDSGKSFYMCACRQDDYAPNYFLPTKQNWLDVIRASSAIPGFYRSGVSLEGINYLDGGISDAIPVKEAARQGAKTLVVIRTVPSQMYYTPQWFKRMERWLGDSSLQPLVNLVQHHETSYRDIQQFIEKPPGKLRIFEIYPPKPLHSIALGSRIPALREDYKLGRLCGRYFLATVGKLLTEKAPLTRHLVPVVTPESIVIPPAPVANDTLVAEVSDAPQANDPTFNNEDLA = 1.89

Look up and state reported total protein half-life in vivo for MKALSPIAVLISALLLQGCVAAAVVGTAAVGTKAATDPRSVGTQVDDGTLEVRVNSALSKDEQIKKEARINVTAYQGKVLLVGQSPNAELSARAKQIAMGVDGANEVYNEIRQGQPIGLGEASNDTWITTKVRSQLLTSDLVKSSNVKVTTENGEVFLMGLVTEREAKAAADIASRVSGVKRVTTAFTFIK
3.05

For MRKIALILAMLLIPCVSFAGLLGSSSSTTPVSKEYKQQLMGSPVYIQIFKEERTLDLYVKMGEQYQLLDSYKICKYSGGLGPKQRQGDFKSPEGFYSVQRNQLKPDSRYYKAINIGFPNAYDRAHGYEGKYLMIHGDCVSIGCYAMTNQGIDEIFQFVTGALVFGQPSVQVSIYPFRMTDANMKRHKYSNFKDFWEQLKPGYDYFEQTRKPPTVSVVNGRYVVSKPLSHEVVQPQLASNYTLPEAK [P0AA99] , write its total protein half-life in vivo.
0.313

Recall and state the measured total protein half-life in vivo for MSLVTDLPAIFDQFSEARQTGFLTVMDLKERGIPLVGTYCTFMPQEIPMAAGAVVVSLCSTSDETIEEAEKDLPRNLCPLIKSSYGFGKTDKCPYFYFSDLVVGETTCDGKKKMYEYMAEFKPVHVMQLPNSVKDDASRALWKAEMLRLQKTVEERFGHEISEDALRDAIALKNRERRALANFYHLGQLNPPALSGSDILKVVYGATFRFDKEALINELDAMTARVRQQWEEGQRLDPRPRILITGCPIGGAAEKVVRAIEENGGWVVGYENCTGAKATEQCVAETGDVYDALADKYLAIGCSCVSPNDQRLKMLSQMVEEYQVDGVVDVILQACHTYAVESLAIKRHVRQQHNIPYIAIETDYSTSDVGQLSTRVAAFIEML .
1.59

Please list total protein half-life in vivo recorded for the sequence MATDSTQCVKKSRGRPKVFDRDAALDKAMKLFWQHGYEATSLADLVEATGAKAPTLYAEFTNKEGLFRAVLDRYIDRFAAKHEAQLFCEEKSVESALADYFAAIANCFTSKDTPAGCFMINNCTTLSPDSGDIANTLKSRHAMQERTLQQFLCQRQARGEIPPHCDVTHLAEFLNCIIQGMSISAREGASLEKLMQIAGTTLRLWPELVK
1.69
